# Assayed system: Bromodomain-containing protein 8 (Homo sapiens)
# Sequence (Q9H0E9 whole entry): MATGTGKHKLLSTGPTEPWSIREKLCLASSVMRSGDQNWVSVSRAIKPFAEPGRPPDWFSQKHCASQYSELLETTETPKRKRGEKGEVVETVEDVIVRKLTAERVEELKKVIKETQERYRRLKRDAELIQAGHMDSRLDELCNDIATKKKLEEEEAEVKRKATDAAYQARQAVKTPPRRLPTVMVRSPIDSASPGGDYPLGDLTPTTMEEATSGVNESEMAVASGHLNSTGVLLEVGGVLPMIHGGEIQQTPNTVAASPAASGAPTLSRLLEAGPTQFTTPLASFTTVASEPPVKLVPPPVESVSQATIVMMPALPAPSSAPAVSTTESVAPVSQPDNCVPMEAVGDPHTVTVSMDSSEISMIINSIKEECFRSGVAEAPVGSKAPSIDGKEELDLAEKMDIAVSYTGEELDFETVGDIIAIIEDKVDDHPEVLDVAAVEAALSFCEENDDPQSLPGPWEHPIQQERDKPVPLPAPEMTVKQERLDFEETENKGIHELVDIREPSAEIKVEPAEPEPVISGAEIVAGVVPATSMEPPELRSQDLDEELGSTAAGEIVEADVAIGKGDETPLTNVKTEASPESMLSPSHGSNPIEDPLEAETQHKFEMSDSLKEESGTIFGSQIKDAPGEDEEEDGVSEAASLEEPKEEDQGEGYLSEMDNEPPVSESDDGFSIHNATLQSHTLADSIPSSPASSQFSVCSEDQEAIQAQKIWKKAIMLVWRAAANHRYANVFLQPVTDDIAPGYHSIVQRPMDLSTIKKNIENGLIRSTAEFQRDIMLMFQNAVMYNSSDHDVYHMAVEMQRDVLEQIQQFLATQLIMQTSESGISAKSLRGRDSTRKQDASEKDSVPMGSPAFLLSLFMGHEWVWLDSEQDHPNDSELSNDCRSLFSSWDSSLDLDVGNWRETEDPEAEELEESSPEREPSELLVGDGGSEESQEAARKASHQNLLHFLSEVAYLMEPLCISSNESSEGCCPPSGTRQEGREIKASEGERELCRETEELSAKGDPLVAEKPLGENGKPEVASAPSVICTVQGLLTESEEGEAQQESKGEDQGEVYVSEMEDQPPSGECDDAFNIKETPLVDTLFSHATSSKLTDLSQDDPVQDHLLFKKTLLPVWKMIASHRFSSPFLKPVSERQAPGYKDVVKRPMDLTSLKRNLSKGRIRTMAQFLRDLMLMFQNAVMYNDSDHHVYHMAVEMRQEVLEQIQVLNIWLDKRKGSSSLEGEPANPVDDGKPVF
# Protocol text: BRD8(1) DiscoverX BROMOscan
Quantity kind: pKd
Kindly note that pKd refers to -log10 of the concentration in mol/L and answer with the value alone.

Ask: Quick one: pKd for CNC(=O)c1cc(C(=O)NC2CC2)cn(Cc2ccccc2)c1=O [GSK620] ?
Reply: 4.50

====

# Assayed system: Potassium voltage-gated channel subfamily A member 5 (Homo sapiens, UniProt P22460)
Quantity kind: IC50

Ask: Write down the reported IC50 of `CNC(=O)c1cc(C(=O)NC2CC2)cn(Cc2ccccc2)c1=O` , test system: Potassium voltage-gated channel subfamily A member 5 (Homo sapiens, UniProt P22460).
Reply: > 50.1 µM

====

# Assayed system: SWI/SNF-related matrix-associated actin-dependent regulator of chromatin subfamily A member 2 (Homo sapiens, UniProt P51531)
# Sequence (P51531 whole entry): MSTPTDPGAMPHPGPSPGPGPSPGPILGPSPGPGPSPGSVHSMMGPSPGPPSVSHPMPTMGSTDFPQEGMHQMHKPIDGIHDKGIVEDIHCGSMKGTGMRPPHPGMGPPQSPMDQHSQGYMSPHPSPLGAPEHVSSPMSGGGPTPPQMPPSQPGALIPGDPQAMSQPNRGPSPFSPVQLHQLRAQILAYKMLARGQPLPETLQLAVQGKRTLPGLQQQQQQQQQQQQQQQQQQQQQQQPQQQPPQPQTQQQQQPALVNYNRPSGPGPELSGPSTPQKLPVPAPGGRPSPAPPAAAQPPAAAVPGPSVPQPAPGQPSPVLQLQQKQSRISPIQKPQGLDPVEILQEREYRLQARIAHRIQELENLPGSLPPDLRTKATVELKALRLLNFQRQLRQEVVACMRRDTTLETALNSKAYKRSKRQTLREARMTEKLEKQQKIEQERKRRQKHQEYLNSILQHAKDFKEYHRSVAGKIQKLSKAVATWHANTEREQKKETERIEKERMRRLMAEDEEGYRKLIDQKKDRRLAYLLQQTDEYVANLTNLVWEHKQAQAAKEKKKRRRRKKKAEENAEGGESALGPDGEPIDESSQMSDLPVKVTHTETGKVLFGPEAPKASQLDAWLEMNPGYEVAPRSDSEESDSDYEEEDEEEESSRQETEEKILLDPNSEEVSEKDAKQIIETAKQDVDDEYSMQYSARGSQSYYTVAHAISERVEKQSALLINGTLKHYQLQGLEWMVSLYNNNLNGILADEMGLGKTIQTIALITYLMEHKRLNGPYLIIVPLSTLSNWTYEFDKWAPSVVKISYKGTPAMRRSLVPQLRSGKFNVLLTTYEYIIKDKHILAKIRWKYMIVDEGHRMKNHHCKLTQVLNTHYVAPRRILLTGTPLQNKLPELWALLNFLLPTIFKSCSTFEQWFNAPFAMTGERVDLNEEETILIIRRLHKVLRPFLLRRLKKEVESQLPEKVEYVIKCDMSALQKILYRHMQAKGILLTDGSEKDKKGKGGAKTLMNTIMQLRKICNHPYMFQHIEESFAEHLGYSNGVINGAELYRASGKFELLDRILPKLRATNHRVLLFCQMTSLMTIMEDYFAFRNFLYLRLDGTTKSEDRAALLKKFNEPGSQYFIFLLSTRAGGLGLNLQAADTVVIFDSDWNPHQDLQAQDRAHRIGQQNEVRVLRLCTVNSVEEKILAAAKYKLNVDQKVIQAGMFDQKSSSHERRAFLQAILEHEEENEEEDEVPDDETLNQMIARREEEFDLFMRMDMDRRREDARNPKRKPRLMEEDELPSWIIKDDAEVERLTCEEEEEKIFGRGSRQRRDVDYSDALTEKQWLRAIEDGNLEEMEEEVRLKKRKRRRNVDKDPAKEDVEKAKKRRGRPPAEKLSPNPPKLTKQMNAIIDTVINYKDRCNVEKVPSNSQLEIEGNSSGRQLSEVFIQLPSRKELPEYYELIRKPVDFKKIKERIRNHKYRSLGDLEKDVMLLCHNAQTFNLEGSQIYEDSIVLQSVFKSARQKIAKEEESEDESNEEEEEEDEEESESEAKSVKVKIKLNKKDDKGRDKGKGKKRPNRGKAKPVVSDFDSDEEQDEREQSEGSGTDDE
# Protocol text: SMARCA2 DiscoverX BROMOscan
Quantity kind: pKd
Remember, pKd is on a log scale: it is -log10 of the molar concentration.

Ask: Need pKd, item `CNC(=O)c1cc(C(=O)NC2CC2)cn(Cc2ccccc2)c1=O`
Reply: 4.50

====

# Assayed system: Transcription intermediary factor 1-alpha (Homo sapiens)
# Sequence (O15164 whole entry): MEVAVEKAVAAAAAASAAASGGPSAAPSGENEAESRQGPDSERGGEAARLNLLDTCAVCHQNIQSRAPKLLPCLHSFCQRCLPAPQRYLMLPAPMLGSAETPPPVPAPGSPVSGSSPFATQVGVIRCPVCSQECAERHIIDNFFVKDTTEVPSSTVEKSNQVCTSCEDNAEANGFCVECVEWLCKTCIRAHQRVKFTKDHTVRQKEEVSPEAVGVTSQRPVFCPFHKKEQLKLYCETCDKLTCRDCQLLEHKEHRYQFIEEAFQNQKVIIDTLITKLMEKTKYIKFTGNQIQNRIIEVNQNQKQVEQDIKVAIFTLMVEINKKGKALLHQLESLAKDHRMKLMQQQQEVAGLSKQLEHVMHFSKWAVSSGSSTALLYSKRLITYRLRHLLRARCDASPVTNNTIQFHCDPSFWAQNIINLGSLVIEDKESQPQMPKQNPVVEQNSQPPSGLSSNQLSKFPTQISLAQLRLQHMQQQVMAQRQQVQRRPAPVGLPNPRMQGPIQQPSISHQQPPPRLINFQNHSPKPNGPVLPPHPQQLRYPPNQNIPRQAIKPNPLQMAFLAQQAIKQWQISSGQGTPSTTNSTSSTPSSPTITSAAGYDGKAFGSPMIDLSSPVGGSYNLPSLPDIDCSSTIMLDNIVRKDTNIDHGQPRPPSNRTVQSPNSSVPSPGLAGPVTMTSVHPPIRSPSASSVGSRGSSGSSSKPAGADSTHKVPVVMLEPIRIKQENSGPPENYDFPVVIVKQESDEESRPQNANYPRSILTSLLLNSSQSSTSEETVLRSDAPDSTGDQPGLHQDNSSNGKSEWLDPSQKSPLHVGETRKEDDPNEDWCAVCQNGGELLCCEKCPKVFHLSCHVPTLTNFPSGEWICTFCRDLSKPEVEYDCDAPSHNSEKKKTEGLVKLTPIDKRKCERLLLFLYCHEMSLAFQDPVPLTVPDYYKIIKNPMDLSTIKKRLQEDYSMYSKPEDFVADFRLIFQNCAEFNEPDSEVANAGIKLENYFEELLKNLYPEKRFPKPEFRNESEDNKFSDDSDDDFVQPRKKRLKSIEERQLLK
# Protocol text: TRIM24(PHD,Bromo.) DiscoverX BROMOscan
Quantity kind: Kd (µM)
Write the answer as a number in µM, unit excluded.

Ask: Could you tell me which Kd is on file for `CNC(=O)c1cc(C(=O)NC2CC2)cn(Cc2ccccc2)c1=O` ?
Reply: 31.6

====

# Assayed system: Protein polybromo-1 (Homo sapiens)
# Protocol text: PBRM1(2) DiscoverX BROMOscan
Quantity kind: Kd (µM)
Report only the number, with the unit µM understood.

Ask: What value of Kd has been reported for the following molecule? CNC(=O)c1cc(C(=O)NC2CC2)cn(Cc2ccccc2)c1=O [GSK620]
Reply: 31.6

====

# Assayed system: D(2) dopamine receptor (Homo sapiens, UniProt P14416)
Quantity kind: IC50

Ask: Please report the recorded IC50 for CNC(=O)c1cc(C(=O)NC2CC2)cn(Cc2ccccc2)c1=O [GSK620] .
Reply: > 100 µM

====

# Assayed system: Phosphatidylinositol 4,5-bisphosphate 3-kinase catalytic subunit gamma isoform (Homo sapiens, UniProt P48736)
# Protocol text: Cross screening panel
pIC50: −log10 of the molar value.
Quantity kind: pIC50

Ask: Value lookup for pIC50; key = `CNC(=O)c1cc(C(=O)NC2CC2)cn(Cc2ccccc2)c1=O`
Reply: < 4.50

====

# Assayed system: Beta-2 adrenergic receptor (Homo sapiens, UniProt P07550)
# Protocol text: Cross screening panel
pEC50: −log10 of the molar value.
Quantity kind: pEC50

Ask: Query: pEC50; subject: CNC(=O)c1cc(C(=O)NC2CC2)cn(Cc2ccccc2)c1=O [GSK620]
Reply: < 4.00

====

# Assayed system: UniProt P28335
# Protocol text: Cross screening panel
pEC50: −log10 of the molar value.
Quantity kind: pEC50

Ask: Need pEC50, item `CNC(=O)c1cc(C(=O)NC2CC2)cn(Cc2ccccc2)c1=O`
Reply: < 4.60

====

# Assayed system: Prostaglandin G/H synthase 2 (Homo sapiens, UniProt P35354)
# Sequence (P35354 whole entry): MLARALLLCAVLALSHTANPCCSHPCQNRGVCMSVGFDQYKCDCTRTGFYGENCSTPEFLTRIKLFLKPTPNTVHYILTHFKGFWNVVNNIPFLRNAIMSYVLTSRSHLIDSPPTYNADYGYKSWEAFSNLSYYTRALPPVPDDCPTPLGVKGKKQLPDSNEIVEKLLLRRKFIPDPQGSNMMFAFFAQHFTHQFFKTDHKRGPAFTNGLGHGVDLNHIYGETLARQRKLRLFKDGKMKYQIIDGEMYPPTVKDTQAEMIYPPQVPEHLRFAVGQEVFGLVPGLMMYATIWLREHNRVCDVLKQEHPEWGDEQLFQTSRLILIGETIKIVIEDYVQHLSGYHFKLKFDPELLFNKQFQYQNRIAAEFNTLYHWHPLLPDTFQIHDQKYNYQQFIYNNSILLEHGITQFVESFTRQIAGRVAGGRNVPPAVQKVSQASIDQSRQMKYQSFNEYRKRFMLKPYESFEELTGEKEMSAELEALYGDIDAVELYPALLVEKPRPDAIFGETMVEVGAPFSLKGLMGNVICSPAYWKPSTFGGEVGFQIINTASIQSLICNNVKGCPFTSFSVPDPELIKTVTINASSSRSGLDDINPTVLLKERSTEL
Quantity kind: IC50

Ask: Consider the compound shown here: CNC(=O)c1cc(C(=O)NC2CC2)cn(Cc2ccccc2)c1=O [GSK620] What is its recorded IC50?
Reply: > 100 µM

====

# Assayed system: Bromodomain-containing protein 1 (Homo sapiens, UniProt O95696)
# Sequence (O95696 whole entry): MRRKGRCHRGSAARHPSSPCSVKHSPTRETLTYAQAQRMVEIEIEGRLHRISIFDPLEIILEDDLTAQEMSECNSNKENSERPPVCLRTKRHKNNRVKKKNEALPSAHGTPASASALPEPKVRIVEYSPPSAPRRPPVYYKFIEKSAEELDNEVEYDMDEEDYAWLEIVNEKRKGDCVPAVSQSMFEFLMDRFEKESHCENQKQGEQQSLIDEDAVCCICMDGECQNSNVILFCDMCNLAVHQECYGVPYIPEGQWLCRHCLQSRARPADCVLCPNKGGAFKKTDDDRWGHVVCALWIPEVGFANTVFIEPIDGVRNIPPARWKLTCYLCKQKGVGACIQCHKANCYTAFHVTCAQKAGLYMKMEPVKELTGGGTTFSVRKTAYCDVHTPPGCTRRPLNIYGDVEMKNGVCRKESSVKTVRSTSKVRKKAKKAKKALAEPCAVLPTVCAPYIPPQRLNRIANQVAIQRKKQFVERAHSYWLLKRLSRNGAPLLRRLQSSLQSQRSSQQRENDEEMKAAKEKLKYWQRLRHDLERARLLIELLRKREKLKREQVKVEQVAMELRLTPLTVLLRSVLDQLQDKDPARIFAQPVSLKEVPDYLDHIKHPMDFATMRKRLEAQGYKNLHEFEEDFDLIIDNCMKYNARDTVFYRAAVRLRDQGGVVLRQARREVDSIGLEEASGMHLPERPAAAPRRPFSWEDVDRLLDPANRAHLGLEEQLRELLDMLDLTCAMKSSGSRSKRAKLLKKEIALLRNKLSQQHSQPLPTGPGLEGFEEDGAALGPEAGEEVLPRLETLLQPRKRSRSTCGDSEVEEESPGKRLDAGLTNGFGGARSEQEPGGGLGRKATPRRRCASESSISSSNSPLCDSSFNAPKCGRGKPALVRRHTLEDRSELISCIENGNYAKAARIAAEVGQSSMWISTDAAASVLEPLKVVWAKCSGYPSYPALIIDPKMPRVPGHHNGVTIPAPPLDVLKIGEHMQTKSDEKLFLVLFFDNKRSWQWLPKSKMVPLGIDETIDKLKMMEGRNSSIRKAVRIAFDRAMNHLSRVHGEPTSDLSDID
# Protocol text: BRD1 DiscoverX BROMOscan
Quantity kind: Kd

Ask: Provide value of Kd for this record tested with Bromodomain-containing protein 1 (Homo sapiens, UniProt O95696): `CNC(=O)c1cc(C(=O)NC2CC2)cn(Cc2ccccc2)c1=O`
Reply: 25.1 µM

====

# Assayed system: Transcription initiation factor TFIID subunit 1-like (Homo sapiens, UniProt Q8IZX4)
# Protocol text: TAF1L(2) DiscoverX BROMOscan
Quantity kind: Kd

Ask: What measured Kd goes with `CNC(=O)c1cc(C(=O)NC2CC2)cn(Cc2ccccc2)c1=O` ?
Reply: 25.1 µM

====

# Assayed system: Bromodomain adjacent to zinc finger domain protein 2A (Homo sapiens)
# Protocol text: BAZ2A DiscoverX BROMOscan
Quantity kind: pKd
Expect pKd as a plain number equal to -log10 of the molar concentration.

Ask: Bench note: what pKd did CNC(=O)c1cc(C(=O)NC2CC2)cn(Cc2ccccc2)c1=O [GSK620] show?
Reply: 4.50

====

# Assayed system: Sodium-dependent noradrenaline transporter (Homo sapiens)
# Sequence (P23975 whole entry): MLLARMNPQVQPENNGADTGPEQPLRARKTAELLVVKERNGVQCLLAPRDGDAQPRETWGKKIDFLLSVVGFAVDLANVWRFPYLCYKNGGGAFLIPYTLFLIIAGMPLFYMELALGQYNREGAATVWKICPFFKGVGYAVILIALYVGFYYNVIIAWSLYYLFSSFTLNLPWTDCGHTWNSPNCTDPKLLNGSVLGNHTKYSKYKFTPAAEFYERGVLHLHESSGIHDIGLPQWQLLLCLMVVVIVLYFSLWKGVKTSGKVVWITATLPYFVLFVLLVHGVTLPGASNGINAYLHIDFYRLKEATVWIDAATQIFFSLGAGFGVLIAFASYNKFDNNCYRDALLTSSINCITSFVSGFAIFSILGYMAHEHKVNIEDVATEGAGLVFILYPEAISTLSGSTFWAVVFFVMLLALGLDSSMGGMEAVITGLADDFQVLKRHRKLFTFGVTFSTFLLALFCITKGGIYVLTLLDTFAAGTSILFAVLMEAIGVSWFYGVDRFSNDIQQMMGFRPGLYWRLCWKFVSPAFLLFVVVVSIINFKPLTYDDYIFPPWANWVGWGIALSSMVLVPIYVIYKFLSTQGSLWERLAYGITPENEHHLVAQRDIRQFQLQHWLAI
pIC50: −log10 of the molar value.
Quantity kind: pIC50

Ask: # query: pIC50 of entry `CNC(=O)c1cc(C(=O)NC2CC2)cn(Cc2ccccc2)c1=O`
Reply: < 4.00
